Origin of the recorded values: ChEMBL document CHEMBL1134835

Target: Alpha-1A adrenergic receptor (Rattus norvegicus, UniProt P43140)
Sequence (P43140 whole entry): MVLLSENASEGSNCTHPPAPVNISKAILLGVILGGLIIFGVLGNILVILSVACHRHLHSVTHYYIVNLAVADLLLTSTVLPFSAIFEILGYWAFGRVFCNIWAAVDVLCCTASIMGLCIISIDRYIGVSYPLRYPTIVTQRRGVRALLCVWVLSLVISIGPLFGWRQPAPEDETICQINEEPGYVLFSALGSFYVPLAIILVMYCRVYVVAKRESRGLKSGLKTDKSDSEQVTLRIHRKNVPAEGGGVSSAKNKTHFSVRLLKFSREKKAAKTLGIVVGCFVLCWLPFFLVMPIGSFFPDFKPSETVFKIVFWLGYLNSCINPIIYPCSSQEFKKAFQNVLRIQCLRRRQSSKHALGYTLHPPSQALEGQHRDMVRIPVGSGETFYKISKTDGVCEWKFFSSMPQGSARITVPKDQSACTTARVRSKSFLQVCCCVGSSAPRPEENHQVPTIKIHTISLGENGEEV
Test: Antagonist affinity [non competitive (irreversible)] at alpha-1A-adrenoceptors on isolated prostatic Vas deferens from rat
Overview of recorded IC50 for various compounds
READOUT LABEL: IC50

# COMPOUND STRUCTURE, MEASUREMENT
measured = [
    ("COc1cc2nc(N3CCN(C(=O)c4cccc(CNCCCCCCNCCSSCCNCCCCCCNCc5cccc(C(=O)N6CCN(c7nc(N)c8cc(OC)c(OC)cc8n7)CC6)c5)c4)CC3)nc(N)c2cc1OC", "3890 nM"),
    ("COc1cc2nc(N3CCN(C(=O)c4ccc(CNCCCCCCNCCSSCCNCCCCCCNCc5ccc(C(=O)N6CCN(c7nc(N)c8cc(OC)c(OC)cc8n7)CC6)cc5)cc4)CC3)nc(N)c2cc1OC", "2000 nM"),
    ("COc1cc2nc(N(C)CCCCCCN(C)C(=O)c3cccc(CNCCCCCCNCCSSCCNCCCCCCNCc4cccc(C(=O)N(C)CCCCCCN(C)c5nc(N)c6cc(OC)c(OC)cc6n5)c4)c3)nc(N)c2cc1OC", "45.7 nM"),
]
